B1: KLHL14 (parent)
chain: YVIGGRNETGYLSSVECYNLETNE

- Variants of: B1
- Assay Details: protein stability index of a GFP-peptide fusion (GPS, HEK-293T) (PSI 1-6); higher = more stable;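 further: lentivirally expressed fusions sorted by FACS into six bins by GFP to DsRed ratio, PSI derived from sequencing read proportions per bin multiplied by bin number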
- Experimental Conditions: c terminus: a fixed tail appended
Record class 1 whenever protein stability index is at 2 or higher; record class 0 when lower.

// below: answered variants
- Alteration: "S13L"
  Category: "class 1"
- Alteration: "T9H"
  Category: "class 0"
- Alteration: "R6A"
  Category: "class 1"

Exercise: Can "E8G" be said to have protein stability index at or above 2?
Solution: class 1

Exercise: For "Y1E" then?
Solution: class 1

Exercise: How about this variant: "L20R"
Solution: class 1

Exercise: What do you have for "N19W" ?
Solution: class 1

Exercise: Also "G10T" , if possible.
Solution: class 0

Exercise: Please answer likewise for "L20N"
Solution: class 1

Exercise: "L20K" ?
Solution: class 1

Exercise: Moving on to the next variant: "G10H"
Solution: class 0

Where do the numbers come from? From the supplement of paper PMC10567573.
